Target: GPR6 (Homo sapiens)
Construct: expressed in transfected cells; 293 cells are used elsewhere
Sequence (P46095 whole entry): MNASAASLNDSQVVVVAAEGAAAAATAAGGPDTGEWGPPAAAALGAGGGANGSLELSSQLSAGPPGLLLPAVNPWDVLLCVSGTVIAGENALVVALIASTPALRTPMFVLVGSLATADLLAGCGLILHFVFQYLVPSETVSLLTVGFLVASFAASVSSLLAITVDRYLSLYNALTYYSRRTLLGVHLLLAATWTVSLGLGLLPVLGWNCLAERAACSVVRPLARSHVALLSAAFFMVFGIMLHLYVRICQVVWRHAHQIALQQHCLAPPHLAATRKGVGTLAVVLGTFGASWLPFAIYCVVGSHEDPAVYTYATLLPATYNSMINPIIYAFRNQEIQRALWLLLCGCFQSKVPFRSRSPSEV
Test: membrane-based cyclic AMP confirmation assay (Example 4C)
Type: biochemical
Conditions: mean +/- standard deviation (number of assays in brackets); read-out: IC50 Values Cyclic AMP Assay Example 4C
# pIC50 per entry
As a rule, pIC50 stands for the negative log10 of the concentration, concentration in M.

smiles code: COc1ccc(C(=O)NC(=S)N2CCNC2=S)cc1
target: GPR6 (Homo sapiens)
pIC50: 4.26
--
smiles code: O=C(NC(=S)N1CCNC1=S)c1cccs1
target: GPR6 (Homo sapiens)
pIC50: 5.71
--
smiles code: Cc1cccc(C(=O)N=C2SSC3=NCCN32)c1
target: GPR6 (Homo sapiens)
pIC50: 6.85

// fetch GPR6 (Homo sapiens) pIC50 for O=C(NC(=S)N1CCNC1=S)c1cccc(F)c1
5.58

# value lookup — system GPR6 (Homo sapiens), readout pIC50, item Cc1noc(C)c1C(=O)/N=C1\SSC2=NCCN21
6.46

State its pIC50 on GPR6 (Homo sapiens): COc1cccc(C(=O)NC(=S)N2CCNC2=S)c1
4.29

Can you look up pIC50 on GPR6 (Homo sapiens) for O=C(N=C1SSC2=NCCN21)c1ccccc1F ?
7.00

---

Here the recorded Cumulative Food Intake (g) (8 hr post administration) is given for each entry.
Assay: Food/water intake and body weight in 24-hour food deprived rats, oral gavage (PO)
Type: in vivo, rat
Details: 100 μmol/kg PO, second assay, Table D; vehicle 14.0
# value in g; strip the unit string

Use these answered entries as a reference point.
compound: O=C(NC(=S)N1CCNC1=S)c1ccc2ccccc2c1 [ARE135]
value measured: 13.5

compound: O=C(N=C1SSC2=NCCN21)c1cccs1 [ARE112]
value measured: 8.1

compound: O=C(/N=C1\SSC2=NCCN21)c1ccc2ccccc2c1 [ARE136]
value measured: 9.0

compound: O=C(N=C1SSC2=NCCN21)c1cccc(F)c1 [ARE130]
value measured: 9.1

Query (compound): O=C(N=C1SSC2=NCCN21)c1cc2ccccc2s1 [ARE140] ; field requested: Cumulative Food Intake (g) (8 hr post administration)
9.6

---

Biological target: GPR6:Gsα-Fusion Protein (Homo sapiens, UniProt P46095)
Construct: expressed in transfected cells
Sequence (P46095 with tags, fused parts or gaps): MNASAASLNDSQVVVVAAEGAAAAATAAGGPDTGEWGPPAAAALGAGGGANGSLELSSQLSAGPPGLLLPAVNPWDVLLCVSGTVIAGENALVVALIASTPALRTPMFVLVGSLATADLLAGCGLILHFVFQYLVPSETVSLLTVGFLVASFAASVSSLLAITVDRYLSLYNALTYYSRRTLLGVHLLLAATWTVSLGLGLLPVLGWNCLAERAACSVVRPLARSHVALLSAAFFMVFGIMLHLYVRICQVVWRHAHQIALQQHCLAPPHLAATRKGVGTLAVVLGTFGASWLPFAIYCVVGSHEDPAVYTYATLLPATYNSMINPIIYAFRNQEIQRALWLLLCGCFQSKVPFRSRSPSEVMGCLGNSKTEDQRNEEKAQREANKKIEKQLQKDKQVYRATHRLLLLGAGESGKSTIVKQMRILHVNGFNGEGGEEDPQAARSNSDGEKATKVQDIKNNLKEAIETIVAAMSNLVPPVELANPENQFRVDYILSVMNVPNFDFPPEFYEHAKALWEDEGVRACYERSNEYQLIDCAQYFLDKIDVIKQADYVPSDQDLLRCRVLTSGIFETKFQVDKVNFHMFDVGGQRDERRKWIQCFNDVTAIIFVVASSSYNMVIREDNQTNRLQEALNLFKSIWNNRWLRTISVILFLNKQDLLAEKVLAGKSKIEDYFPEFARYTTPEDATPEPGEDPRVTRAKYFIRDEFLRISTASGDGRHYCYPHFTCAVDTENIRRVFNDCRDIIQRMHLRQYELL
Assay: [35S]GTPγS membrane binding assay (Example 4A)
Type: biochemical
Conditions: mean +/- standard deviation (number of assays in brackets); read-out: IC50 Values GTP Assay Example 4A
Protocol: The assay plates were then centrifuged at 400 rpm for 15 minutes at room temperature and then subsequently aspirated and counted in a scintillation counter. […] Candidate compounds (Tripos, Inc., St. Louis, Mo.) were received in 96-well plates (these can be frozen at −80° C.). […] Protein concentration was then determined using the Bradford Protein Assay set forth above. […] The plates were then read on a Wallac 1450 using setting “Prot. #37” (as per manufacturer instructions). […]
Listed here: items and their measured log10 of IC50.
A difference of one corresponds to tenfold IC50; all values are log10 with IC50 in nM.

Solved entries:
compound: O=C(NC(=S)N1CCNC1=S)c1ccc(F)cc1 [ARE127]
value measured: 3.10
--
compound: O=C(NC(=S)N1CCNC1=S)c1cc2ccccc2s1 [ARE139]
value measured: 2.41
--
compound: O=C(N=C1SSC2=NCCN21)c1cccnc1 [ARE156]
value measured: 2.83
--
compound: O=C(NC(=S)N1CCNC1=S)c1ccon1 [ARE149]
value measured: 3.39
--
compound: O=C(NC(=S)N1CCNC1=S)c1cccnc1 [ARE155]
value measured: 3.82

Any idea what log10 of IC50 was measured for O=C(N=C1SSC2=NCCN21)c1ccc(Cl)cc1 [ARE120] ?
2.81

Need log10 of IC50, item O=C(N=C1SSC2=NCCN21)c1cccc(F)c1 [ARE130]
2.34

Any idea what its log10 of IC50 is? The compound is O=C(NC(=S)N1CCNC1=S)c1cnn(-c2ccc(Cl)cc2)c1C(F)(F)F [ARE153]
3.39

Consider the compound shown here: O=C(N=C1SSC2=NCCN21)c1cc2ccccc2s1 [ARE140] What is its recorded log10 of IC50?
2.11

So what does the record say about log10 of IC50 for O=C(N=C1SSC2=NCCN21)c1ccco1 [ARE144] ?
2.40

Fill blank: measured log10 of IC50 of the compound O=C(NC(=S)N1CCNC1=S)c1cccs1 [ARE111] is ____.
3.45

What does the data say about its log10 of IC50? Entry: COc1ccc(C(=O)NC(=S)N2CCNC2=S)cc1 [ARE121]
5.09

Using the record for O=C(N=C1SSC2=NCCN21)c1cnn(-c2ccc(Cl)cc2)c1C(F)(F)F [ARE152] , report its log10 of IC50.
2.28

All values here come from patent US6420563B1.
